# Test system: CHEAL (common lambsquarters)
# Protocol description: Pre-plant incorporated (PPI) herbicidal activity, warm season
# Assay type: in vivo, Chenopodium album
# Condition: PPI application, 100 g/ha
This section presents compounds with their documented Percent inhibition CHEAL values.

# count of solved cases: 2
Compound	Measured endpoint	Value observed
CCN(CC)C(=O)n1cnc(S(=O)(=O)C(F)(F)Cl)n1 [Example 3]	Percent inhibition CHEAL	99%
CCN(CC)C(=O)n1cnc(S(=O)(=O)C(F)(F)SCc2ccccc2)n1 [Example 10]	Percent inhibition CHEAL	60%

Switching to the query record.
// Percent inhibition CHEAL value for CCN(CC)C(=O)n1cnc(S(=O)(=O)C(F)(F)SCC(=O)OC)n1 [Example 11] : 60%

---

# System: LAMPU (purple deadnettle)
# Protocol description: Pre-emergence herbicidal activity, cool season
# Format: in vivo, Lamium purpureum
# Condition: lowest tested rate with 80% or greater inhibition; rates 300, 100, 30, 10 g/ha; about 14 days
This section presents compounds with their documented Pre-emergence activity GR80, LAMPU values.
Give the value in g/ha but do not write g/ha after it.

// Pre-emergence activity GR80, LAMPU value for `CCCN(CC)C(=O)n1cnc(S(=O)(=O)C(F)(F)SCC)n1` : 10

// Pre-emergence activity GR80, LAMPU value for `CN(C(=O)n1cnc(S(=O)(=O)C(F)(F)C(F)(F)Br)n1)c1ccccc1` : 300

// Pre-emergence activity GR80, LAMPU value for `CCN(CC)C(=O)n1cnc(S(=O)(=O)C(F)(F)SCc2ccccc2)n1` : 100

---

# Tested on: SASKR (russian thistle)
# Protocol description: Pre-plant incorporated (PPI) herbicidal activity, cool season
# Type: in vivo, Salsola kali
# Condition: weed, PPI application, 900 g/ha
Measured endpoint: Percent inhibition SASKR (%)
Give the value in % but do not write % after it.

Compound	Subject of test	Measured endpoint	Value observed
CCN(CC)C(=O)n1cnc(S(=O)(=O)C(F)(F)C(F)F)n1 [Example 16]	SASKR (russian thistle)	Percent inhibition SASKR	100
CCN(CC)C(=O)n1cnc(S(=O)(=O)C(F)(F)SCC(=O)OC)n1 [Example 11]	SASKR (russian thistle)	Percent inhibition SASKR	65
CCN(CC)C(=O)n1cnc(S(=O)(=O)C(F)(F)Cl)n1 [Example 3]	SASKR (russian thistle)	Percent inhibition SASKR	100

// Percent inhibition SASKR value for CCN(CC)C(=O)n1cnc(S(=O)(=O)C(F)(F)SC)n1 [Example 9] : 100

// Percent inhibition SASKR value for CCN(CC)C(=O)n1cnc(S(=O)(=O)C(F)(F)F)n1 [Example 2] : 100

// Percent inhibition SASKR value for CCN(CC)C(=O)n1cnc(S(=O)(=O)C(F)(F)SCCOC)n1 [Example 13] : 100

// Percent inhibition SASKR value for C=C(CC(F)(F)S(=O)(=O)c1ncn(C(=O)N(CC)CC)n1)C[Si](C)(C)C [Example 20] : 100

// Percent inhibition SASKR value for CCN(CC)C(=O)n1cnc(S(=O)(=O)C(F)(F)SCc2ccccc2)n1 [Example 10] : 100

// Percent inhibition SASKR value for CCN(CC)C(=O)n1cnc(S(=O)(=O)C(F)(F)C(F)(F)Br)n1 [Example 4] : 100

Data origin: patent US6461997B1
